- Tested on: β-galactosidase in CMV-LacZ C2C12 myotubes
- TEST_DESCRIPTION: CMV-LacZ secondary screen in C2C12 myotubes (β-Gal stabilizing assay)
- Assay type: cell-based, mouse
- CONDITION_PARAMETERS: Mus musculus, C2C12, read-out: CMV-LACZ in Myotubes, signal relative to DMSO, 20 uM; C2C12 CMV-LacZ myotubes; fold relative to DMSO
Use T when the recorded fold induction at 20 µM is no lower than 1; use F when it is lower.

input: Hi team, for "COc1cc2c(cc1NC(=O)Cc1ccc(C)cc1)oc1ccccc12" , is the recorded fold induction at 20 µM at or above 1?
output: F

input: Do the same for "COc1ccccc1C(=O)Nc1nc2cc3c(cc2s1)OCO3" please
output: T

input: // same read-out, input: "O=C(O)CCn1cc(/C=C2/NC(=S)N(c3ccccc3)C2=O)c(-c2ccccc2)n1"
output: F

---

- Tested on: β-galactosidase in CMV-LacZ C2C12 myotubes
- TEST_DESCRIPTION: CMV-LacZ secondary screen in C2C12 myotubes (β-Gal stabilizing assay)
- Assay type: cell-based, mouse
- CONDITION_PARAMETERS: 40 uM; C2C12 CMV-LacZ myotubes; fold relative to DMSO
ASSAY_READOUT: CMV-LACZ in Myotubes, signal relative to DMSO
Write no unit; give the number alone.

input: Fill in the blank: the reported CMV-LACZ in Myotubes, signal relative to DMSO of "COc1ccc(CCNC(=O)Cn2nnc(C(=O)Nc3ccc(Br)cc3)c2N)cc1OC" is ____.
output: 0.5365

input: And for COc1cc(/C=C/CN2CCN(Cc3ccc(C)o3)C(CCO)C2)ccc1O (centres unmarked) ?
output: 1.0600

input: What about "Cn1c(=O)c2c(nc(Sc3ncnn3CC(=O)NC3CCCCC3)n2C)n(C)c1=O" ?
output: 0.861

input: Now try CCOCCCN1C(=O)CN(C2CCCCCC2)C(=O)C1c1ccc(OC)cc1 (centres unmarked) .
output: 1.076

input: Then this molecule: "CCOC(=O)c1sc(=N)n(-c2ccc(OC)cc2)c1C"
output: 1.1840

input: Cool, now COc1cc(C(C(=O)NC2CCCCC2)N(C(=O)c2snc(C(N)=O)c2N)c2ccc(C)cc2)ccc1O (centres unmarked)
output: 0.6965

input: Also "Cc1ccc(C2=C(CC(=O)O)C(=O)CC2)cc1" ?
output: 0.9127

input: Also, COC(=O)C1=NNC2(C)C(=O)N(c3ccc(C)cc3)C(=O)C12 (centres unmarked) please.
output: 1.1815

---

Provide the reported CMV-LACZ in Myoblasts, value relative to DMSO of each item.
- Tested on: β-galactosidase in CMV-LacZ C2C12 myoblasts
- TEST_DESCRIPTION: CMV-LacZ secondary screen in C2C12 myoblasts (β-Gal stabilizing assay)
- Type: cell-based, mouse
- CONDITION_PARAMETERS: 1 uM; SU9516 analogs, C2C12 CMV-LacZ, N=2
- Text: In order to determine compounds that acted to stabilize β-gal in myogenic cells, a CMV-LacZ C2C12 cell line was used in a secondary screen. The EGFP gene from the pEGFP (Clontech) vector was replaced by LACZ PCR product with digests of the vector/PCR product performed using EcoRI (NEB) and NotI (NEB) and ligated using T4 DNA Ligase (NEB) following standard procedures to produce the CMV-LACZ vector. […]
Give a plain numeric answer without units written out.

input: Please report the recorded CMV-LACZ in Myoblasts, value relative to DMSO for "O=C1Nc2ccccc2/C1=C\c1cccn1-c1ccc(OC(F)(F)F)cc1" .
output: 1.2640

input: Also "Cc1ccc2c(c1)/C(=C/c1ccccc1C)C(=O)N2" , if possible.
output: 1.0106

input: Then this molecule: "O=C1Nc2ccccc2/C1=C/c1cnc(-c2ccccc2)[nH]1"
output: 1.0422

input: Now try "O=C1Nc2ccccc2/C1=C/c1ccccc1Cl" .
output: 1.0919

input: What about this molecule? "CCO/C(C)=C1\C(=O)Nc2ccccc21"
output: 1.1863

input: Let us now turn to "NC(=O)COc1ccc(C(=O)/C=C2/C(=O)Nc3ccccc32)cc1"
output: 0.9403

input: Try the molecule "Cc1ccccc1/C=C1\C(=O)Nc2ccc(F)cc21"
output: 0.9954

input: And "COc1ccc(C(=O)/C=C2/C(=O)Nc3ccccc32)cc1" ?
output: 0.9620

input: Another: "COc1ccc2c(c1)C(=C(C#N)C#N)C(=O)N2CCc1ccccc1"
output: 0.8256

---

- Test system: α7 integrin (LacZ reporter in α7LacZ+/− myoblasts)
- TEST_DESCRIPTION: qHTS of the LOPAC library and MLSMR (online screen, α7LacZ+/− myoblasts)
- CONDITION_PARAMETERS: Mus musculus, Myoblast, 48 h, read-out: Activity at 7.660 uM [%] **
ASSAY_READOUT: activation at 7.66 µM (%)
// units = %; emit number, no label

input: Record request: activation at 7.66 µM value, item NS(=O)(=O)c1ccc(NC(=O)c2ccc(CNS(=O)(=O)c3cc(C(F)(F)F)ccc3Cl)cc2)cc1 [Compound 207]
output: 25.5

input: Next compound: COc1cc2c(cc1OC)C(NC(=O)C(F)(F)F)C/C2=N\O (stereo not drawn) [Compound 193]
output: 17.9

input: Also, O=C(NCCc1ccc(F)cc1)N[C@@H](Cc1ccccc1)C(=O)O [Compound 165] please.
output: 0

input: Queued: Cc1nnc(NC(=O)CSc2nnc(CCNC(=O)c3ccccc3F)n2C)s1 [Compound 147]
output: 29.1

input: // same read-out, input: CN(C)S(=O)(=O)c1ccc(C(=O)Nc2nc3ccccc3[nH]2)cc1 [Compound 116]
output: 36.7

input: Check CS(=O)(=O)Cc1cccc(C(=O)NN(c2ccccc2)c2ccccc2)c1 [Compound 102] too.
output: 24.3

input: And for CCOc1ccccc1NC(=O)c1cccc2c1C(=O)N(C1CCCCC1)C2 [Compound 15] ?
output: 58

input: And for CC(/C=C(\O)c1ccccc1)=N\c1ccc(Br)c(Cl)c1 [Compound 130] ?
output: 26.1

input: // next record Cc1ccc(NC(=O)NCc2nc3ccccc3n2C)cc1 [Compound 77]
output: 54.7

---

- Test system: β-galactosidase in CMV-LacZ C2C12 myotubes
- TEST_DESCRIPTION: CMV-LacZ secondary screen in C2C12 myotubes (β-Gal stabilizing assay)
- Assay type: cell-based, mouse
- CONDITION_PARAMETERS: 5 uM; CMV-LacZ C2C12 myotubes; 96-well format
ASSAY_READOUT: CMV-LACZ in Myotubes (β-galactosidase activity relative to DMSO)
Please give the numeric answer without any surrounding text.

input: What value of CMV-LACZ in Myotubes (β-galactosidase activity relative to DMSO) on β-galactosidase in CMV-LacZ C2C12 myotubes does "C/C(=N\Nc1nncc2ccccc12)c1cccc(OC(F)F)c1" have?
output: 1.113

input: "COc1ccc(N2CCCC2)c(NC(=O)c2ccc([N+](=O)[O-])o2)c1" ?
output: 1.172

input: Follow-up item: "NS(=O)(=O)c1ccc(NC(=O)c2cc(-c3ccccc3O)n[nH]2)cc1"
output: 0.9737

input: Entry Cc1ccc(NC(=O)CC2COc3ccccc3O2)cc1 (centres unmarked) please
output: 0.9724

input: Item: O=C(Nc1cc(Br)ccc1O)C1CC(c2ccccc2Cl)=NO1 (centres unmarked)
output: 0.9234

input: Same question for "Cc1cccc(OCc2nc(C#N)c(N3CCCC3)o2)c1" please.
output: 1.244

input: Please do the same for "O=C(Nc1ccccc1)Nc1ccc(Cl)c(S(=O)(=O)N2CCOCC2)c1" as well.
output: 1.126

input: And what about the compound CCS(=O)(=O)N1CCCC(C(=O)c2ccc(OC)cc2C)C1 (centres unmarked) ?
output: 0.9962

input: Then "Cc1ccc(-c2onc3ccc(C(=O)/C=C/N(C)C)cc23)cc1" ?
output: 0.8707

input: Lookup "Cc1ccc(C2Nc3cccc4cccc(c34)N2)s1"
output: 0.9681

input: Then what about the compound "COc1ccc(-n2c(SCC(=O)Nc3cccc(C(=O)O)c3)nnc2-c2ccco2)cc1" ?
output: 1.026

input: Now the same for "COc1ccc(-c2csc3ncnc(N4CCN(c5ccccc5[N+](=O)[O-])CC4)c23)cc1"
output: 0.9566

input: How about "COCc1c(C(=O)OCc2nc3ccsc3c(=O)[nH]2)oc2ccccc12" ?
output: 0.9749

input: How about "COc1ccccc1OCC(=O)Nc1cc2c(cc1C(=O)O)OCCCO2" ?
output: 0.9238

input: Would you kindly repeat that for "COc1ccc(S(=O)(=O)N2CCN(C(=O)C3CCC3)CC2)cc1" ?
output: 0.9404

input: Subsequent entry: Cc1cc(NC(=O)CCC(=O)N(Cc2cccnc2)C(C(=O)NC(C)(C)C)c2ccccc2Cl)no1 (centres unmarked)
output: 1.115

input: Let us now turn to "O=C(CSc1nnc(C2CC2)n1C1CC1)c1cccs1"
output: 0.919

input: Now the same for NC(=O)c1nsc(C(=O)N(c2ccccc2)C(C(=O)NCc2ccc(F)cc2)c2ccc(O)cc2)c1N (centres unmarked)
output: 0.9491

input: Can you handle CCOc1ccc(S(=O)(=O)NCCC(=O)NCC(c2cccs2)N2CCOCC2)cc1 (centres unmarked) next?
output: 0.9349

input: What do you have for "O=C(NC1CCCC1)c1ccc(CS(=O)(=O)Cc2ccccc2F)o1" ?
output: 0.9791

input: Check "C/C(=N/OC(=O)CC(C)C)c1cc(-c2ccc(Cl)cc2)no1" too.
output: 1.111

input: Continue with "O=Cc1cnc(N2CCCCC2)s1"
output: 0.8504

input: Please answer likewise for COc1cccc(N2C(=O)CC(N3CCc4ccccc4C3)C2=O)c1 (centres unmarked)
output: 0.8609

input: What about this compound? "CN(C)S(=O)(=O)c1cccc(C(=O)Nc2ccc3c(c2)CCC3)c1"
output: 0.9287

input: Okay, and "CCCC(=O)Nc1ccccc1NC(=O)c1ccc(OCC)cc1" ?
output: 0.9362

input: Proceed to "CNc1nnc(SCC(=O)c2cc(C)n(C3CC3)c2C)s1"
output: 0.9468

input: Okay, and "C[C@H]1CNC(=O)c2c(C(=O)Nc3ccc(CNC(=O)OC(C)(C)C)cc3)ncn21" ?
output: 1.354

input: Again, but for "CN(C)S(=O)(=O)c1ccc(C(=O)Nc2nc3ccccc3[nH]2)cc1"
output: 0.954

input: Moving on to CC(=O)c1cccc(NC(=O)C2CCCN(S(=O)(=O)c3cccc4nonc34)C2)c1 (centres unmarked)
output: 1.087

input: Now try "O=C(/C(=C(/[O-])c1ccccc1)[n+]1ccccc1)c1ccc([N+](=O)[O-])cc1" .
output: 0.8776

input: Follow-up entry: "COc1cc(/C=C/c2nc(-c3ccccc3O)n[nH]2)cc(OC)c1OC"
output: 0.9789

input: Check "CS(=O)(=O)Cc1cccc(C(=O)NN(c2ccccc2)c2ccccc2)c1" too.
output: 0.8962

input: // same read-out, input: "O=C(c1ccc(Cl)c(S(=O)(=O)N2CCCCC2)c1)N1CCN(Cc2ccccc2)CC1"
output: 0.9396

input: Also "COc1ccc(C(=O)N/C(=C/c2cccnc2)C(=O)N2CCN(C)CC2)cc1OC" , if possible.
output: 1.053

input: Same lookup for "Cc1ccc(-c2csc(Nc3ccc(C(=O)O)cc3)[n+]2Cc2ccccc2)cc1" , please.
output: 0.8246

Data origin: patent US9980943B2
